System: COLO-320-HSR (Colorectal Carcinoma)
Assay: combination Emax (second highest fraction inhibited in the dose matrix, 72 h); higher = more inhibition; extreme values may be limits of the assay
QUANTITY NAME: combination Emax
The response must contain the number and no unit.

Prompt: Need combination Emax of CC1(C)CCC(CN2CCN(c3ccc(C(=O)NS(=O)(=O)c4ccc(NCC5CCOCC5)c([N+](=O)[O-])c4)c(Oc4cnc5[nH]ccc5c4)c3)CC2)=C(c2ccc(Cl)cc2)C1 [Venetoclax] + C[C@@H](Nc1cc(F)cc(F)c1)c1cc(C(=O)N(C)C)cc2c(=O)cc(N3CCOCC3)oc12 [AZD8186] (first compound max 1 µM, 7x7, partner max 3 µM) , thanks.
Response: 0.135
